molecular target: PDE (type III) enzyme (obtained from cat heart homogenate); assay: Inhibition of phosphodiesterase (PDE) (type III); settings: 1 µM cAMP, read-out: IC₅₀
endpoint: IC50 (µM)

(a) Cc1nccn1-c1ccc2c(c1)CC1SC(=O)NN=C21 (centres unmarked)
(b) Cc1cn(-c2ccc3c(c2)CC2SC(=O)NN=C32)cn1 (centres unmarked)
Hey, which is lower on measured IC50, a or b ? Selection: enter the item's label.
b
(b: 0.41 µM, a: 0.66 µM)
